System Tested: recombinant human AChE (Homo sapiens)
Sequence (P22303 32-614): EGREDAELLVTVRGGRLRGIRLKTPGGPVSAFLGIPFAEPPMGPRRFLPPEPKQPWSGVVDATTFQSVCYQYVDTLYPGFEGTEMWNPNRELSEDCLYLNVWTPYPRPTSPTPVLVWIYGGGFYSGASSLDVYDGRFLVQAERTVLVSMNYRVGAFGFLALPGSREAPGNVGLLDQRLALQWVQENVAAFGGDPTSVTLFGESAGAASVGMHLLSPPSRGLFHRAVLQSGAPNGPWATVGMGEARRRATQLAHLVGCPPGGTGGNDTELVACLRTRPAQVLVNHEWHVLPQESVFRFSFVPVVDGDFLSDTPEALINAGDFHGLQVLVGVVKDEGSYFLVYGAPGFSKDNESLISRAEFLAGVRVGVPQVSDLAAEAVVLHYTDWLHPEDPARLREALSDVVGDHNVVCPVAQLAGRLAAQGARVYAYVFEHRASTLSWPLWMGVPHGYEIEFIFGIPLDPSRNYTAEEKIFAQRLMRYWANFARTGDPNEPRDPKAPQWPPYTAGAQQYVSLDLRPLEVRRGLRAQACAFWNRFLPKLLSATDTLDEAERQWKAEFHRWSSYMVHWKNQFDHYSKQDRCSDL
Procedure Text: Modified Ellman's colorimetric assay for AChE and kinetic studies
Run Parameters: substrate ATC 0.5 mM; mean of two experiments
pIC50: −log10 of the molar value.
Reported values of pIC50 for individual entries

Compound	pIC50
COc1cc(CN2CCN(Cc3ccccc3Cl)CC2)c([N+](=O)[O-])cc1OC [Compound D4]	3.84
CN(C(=O)COc1ccc(-c2nn(C)c(=O)c3ccccc23)cc1)C1CCCCC1 [Compound C1]	4.14
O=C(Nc1ccc(CN2CCOCC2)cc1)c1ccc2c(c1)[nH]c(=O)n2CCc1ccccc1 [Compound B7]	4.40
CCN(CC)C(=O)c1cccc(Nc2ccc(-c3ccccc3OC)nn2)c1 [Compound D3]	3.60
